experiment: melting temperature; fluorescence melt of hairpins on a sequencing array, two-state fit, raised by 9.35 °C to match UV melts; conditions: sodium 0.088 M
property: Tm (°C)
# number only, unit °C dropped from output

Need Tm, item GATCCACACGTGGATC ((((((....))))))
59

Need Tm, item GTCGACGAAAGTCCGGAC ((((((....)))..)))
37

Need Tm, item GATCGTTACGACGATC ((((((....))))))
57.1

Need Tm, item GGCCAAGGAAACTTAGCC (((.(((....))).)))
36.3

Need Tm, item GCCGGCGGAAACACCGGC (((((.(....).)))))
66.8

Need Tm, item GATTTAGGAAACTAGATC (((.(((....))).)))
28.3

Need Tm, item GCGTCCTGACGC ((((....))))
59.9

Need Tm, item GACCTCACGAAAGTGGTC (((..(((....))))))
37.4

Need Tm, item GGCAAGAAATTGCC (((((....)))))
53

Need Tm, item CGAGCGGAAACGCGATCG ((((((....)))..)))
47

Need Tm, item GCGGCAACCCGC ((((....))))
51.9

Need Tm, item GATCTACGTGTAGATC ((((((....))))))
55.2

* * *

assay: melting temperature; fluorescence melt of hairpins on a sequencing array, two-state fit, raised by 9.35 °C to match UV melts; conditions: sodium 0.088 M
Answer each item with its documented Tm.
# number only, unit °C dropped from output

Need Tm, item GTGTAGGGAAACCTACGC (.(((((....))))).)
50

Need Tm, item GGCACCCGAAAGGGGCC (((.(((....))))))
67.1

Need Tm, item GTCAACACGAAAGTGGAC (((..(((....))))))
38.6

Need Tm, item CGCCCGGAAACGGTGCG ((((((....))).)))
57.9

Need Tm, item GAACACGAAAGTGTATTC ((((((....)))..)))
33.6

Need Tm, item GCTACCTCGAAAGAGAGC (((..(((....))))))
30.1

Need Tm, item GCGCAGGGAAACCCACGC (((..((....))..)))
43.9

Need Tm, item GATCATGAGCATGATC ((((((....))))))
48

Need Tm, item GATCCCACAGGGATC ((((((...))))))
67.1

Need Tm, item GGGCAAGGAAACCTGCCC (((((.(....).)))))
57.5

Need Tm, item GATCATATTCATGATC ((((((....))))))
47.8

Need Tm, item GTTTGCCGAAAGGCCAAC (((.(((....))).)))
41.5

Need Tm, item GATCCCACATGGGATC ((((((....))))))
60.8

Need Tm, item GAGCCCGAAAGGGATCTC ((((((....)))..)))
69

Need Tm, item GTCCGTCGAAAGACAGAC (((.(((....))).)))
47

Need Tm, item CCACTGAAAAGTGG (((((....)))))
54.5

Need Tm, item CGCCCGGAAACGGCAGCG ((((((....)))..)))
48.7

Need Tm, item GCGATGCGAAAGCGCCGC (((..((....))..)))
62.1

Need Tm, item GTTATGCCGAAAGGCAAC (((..(((....))))))
33

Need Tm, item GGTCTCGAAAGAGCCACC ((((((....)))..)))
43.3

Need Tm, item GAAGCCGAAAGGCCATTC ((((((....)))..)))
28

Need Tm, item GTGAACGAAAGTTATCAC ((((((....)))..)))
31

Need Tm, item GCCCATGGAAACATGAGC ((.((((....)))).))
43.1

Need Tm, item GGTGCCGAAAGGCATACC ((((((....)))..)))
48.2

Need Tm, item GGGTTAGGAAACCAACCC (((((.(....).)))))
45.6
